# study-system: cAMP-dependent protein kinase (PKA) (Homo sapiens, UniProt P22694+P17612+P22612)
# assay-method-text: Inhibition of c-AMP dependent kinase (PKA) using histone II A protein
# Assay type: protein assay
measurement-kind: IC50 (µM)
Give a bare numeral; the unit µM is implied.

Worked cases, IC50 given:
# input compound: `NCCNC1=C(c2cc3ccccc3[nH]2)C(=O)NC1=O` ; wanted: its IC50
100

# input compound: NC(Cc1ccccc1)C(=O)NCCNCCCCCNC1=C(c2cc3ccccc3[nH]2)C(=O)NC1=O (stereo not given) ; wanted: its IC50
120

# input compound: `NCCNCCNC1=C(c2cc3ccccc3[nH]2)C(=O)NC1=O` ; wanted: its IC50
310

Consider the additional compound presented here.
# input compound: `NCCCNCCCNC1=C(c2cc3ccccc3[nH]2)C(=O)NC1=O` ; wanted: its IC50
390

====

# study-system: cAMP-dependent protein kinase (PKA) (Homo sapiens, UniProt P22694+P17612+P22612)
# assay-method-text: Inhibition of c-AMP dependent kinase (PKA) using histone II A protein
# Type: protein assay
Please respond with met when measured IC50 is strictly beneath 200 µM, and with not met in all other cases.

Would you please look over these solved cases?
Strictly below 200 µM in IC50? `NCCCCCNC1=C(c2cc3ccccc3[nH]2)C(=O)NC1=O`
not met

Strictly below 200 µM in IC50? `NCCCCCCNC1=C(c2cc3ccccc3[nH]2)C(=O)NC1=O`
met

Strictly below 200 µM in IC50? `NCCCCCCCNC1=C(c2cc3ccccc3[nH]2)C(=O)NC1=O`
met

Strictly below 200 µM in IC50? NC(CCC(=O)O)C(=O)NCCCCCNC1=C(c2cc3ccccc3[nH]2)C(=O)NC1=O (stereo not given)
not met

Next, consider the following molecule.
Strictly below 200 µM in IC50? NC(N)=NCCCC(N)C(=O)NCCNCCCCCNC1=C(c2cc3ccccc3[nH]2)C(=O)NC1=O (stereo not given)
not met

====

# study-system: Protein kinase C (PKC)
# assay-method-text: Inhibition of protein kinase C (PKC) using histone III S protein
# Format: protein assay
Please respond with Met when measured IC50 is strictly beneath 40 µM, and with Not met in all other cases.

Strictly below 40 µM in IC50? NC(CCC(=O)O)C(=O)NCCCCCNC1=C(c2cc3ccccc3[nH]2)C(=O)NC1=O (stereo not drawn)
Not met

Strictly below 40 µM in IC50? NC(N)=NCCCC(N)C(=O)NCCCCCNC1=C(c2cc3ccccc3[nH]2)C(=O)NC1=O (stereo not drawn)
Not met

New cases:
Strictly below 40 µM in IC50? `NCCCCCNC1=C(c2cc3ccccc3[nH]2)C(=O)NC1=O`
Met

Strictly below 40 µM in IC50? NC(Cc1ccccc1)C(=O)NCCNCCCCCNC1=C(c2cc3ccccc3[nH]2)C(=O)NC1=O (stereo not drawn)
Not met

Strictly below 40 µM in IC50? `NCCNC1=C(c2cc3ccccc3[nH]2)C(=O)NC1=O`
Not met

Strictly below 40 µM in IC50? NC(Cc1ccccc1)C(=O)NCCCCCNC1=C(c2cc3ccccc3[nH]2)C(=O)NC1=O (stereo not drawn)
Not met

Strictly below 40 µM in IC50? `NCCNCCCCCNC1=C(c2cc3ccccc3[nH]2)C(=O)NC1=O`
Not met

Strictly below 40 µM in IC50? `NCCCCCCCNC1=C(c2cc3ccccc3[nH]2)C(=O)NC1=O`
Met

====

# study-system: Protein kinase C (PKC)
# assay-method-text: Inhibition of protein kinase C (PKC) using histone III S protein
# Type: protein assay
Please respond with met when measured IC50 is strictly beneath 8 µM, and with not met in all other cases.

Would you please look over these solved cases?
Strictly below 8 µM in IC50? `NCCCCCCNC1=C(c2cc3ccccc3[nH]2)C(=O)NC1=O`
not met

Strictly below 8 µM in IC50? `NCCNCCNC1=C(c2cc3ccccc3[nH]2)C(=O)NC1=O`
not met

Strictly below 8 µM in IC50? `C[C@H]1CNCCN1S(=O)(=O)c1cccc2cnccc12`
met

Next, consider the following compound.
Strictly below 8 µM in IC50? `NCCCNCCCNC1=C(c2cc3ccccc3[nH]2)C(=O)NC1=O`
not met

meta.source: ChEMBL document CHEMBL1128033
